# assayComment: physchem
# experimentalConditions: 30 °C, pH 7, aqueous buffer, thermodynamic from solid
solubility by entry:

Below are worked cases with known answers.
# compound, solubility
rows = [
    ("O=C(O)Cc1ccc(O)c(O)c1 [DOPAC, 3,4-dihydroxyphenylacetic acid]", "> 2000 µg/mL"),
    ("O=c1ccc2cc(O)c(O)cc2o1 [Esculetin, 6,7 Dihydroxvcoumarin]", "< 2000 µg/mL"),
    ("O=C(O)C=Cc1ccc(O)c(O)c1 [Caffeic acid, 3,4-dihydroxycinnamic acid]", "> 2000 µg/mL"),
]

Now consider the entry below.
Incoming: solubility for O=C(O)c1ccc(O)c(O)c1 [Protocatechuric acid, 3,4-dihydroxybenzoic acid] ?
Outgoing: > 2000 µg/mL

----------
# assayComment: in vitro
# experimentalConditions: human
recordedMetric: CC50

# structureSmiles, CC50
data = [
    ("Nc1nc2c(ncn2COCCO)c(=O)[nH]1", "> 100 µg/mL"),
]

Consider the record given below.
Incoming: CC50 for `Nc1nc(O)c2ncn(COC(CO)CO)c2n1` ?
Outgoing: > 100 µg/mL
